Target: human recombinant HDAC1 (Homo sapiens)
Sequence (Q13547 whole entry): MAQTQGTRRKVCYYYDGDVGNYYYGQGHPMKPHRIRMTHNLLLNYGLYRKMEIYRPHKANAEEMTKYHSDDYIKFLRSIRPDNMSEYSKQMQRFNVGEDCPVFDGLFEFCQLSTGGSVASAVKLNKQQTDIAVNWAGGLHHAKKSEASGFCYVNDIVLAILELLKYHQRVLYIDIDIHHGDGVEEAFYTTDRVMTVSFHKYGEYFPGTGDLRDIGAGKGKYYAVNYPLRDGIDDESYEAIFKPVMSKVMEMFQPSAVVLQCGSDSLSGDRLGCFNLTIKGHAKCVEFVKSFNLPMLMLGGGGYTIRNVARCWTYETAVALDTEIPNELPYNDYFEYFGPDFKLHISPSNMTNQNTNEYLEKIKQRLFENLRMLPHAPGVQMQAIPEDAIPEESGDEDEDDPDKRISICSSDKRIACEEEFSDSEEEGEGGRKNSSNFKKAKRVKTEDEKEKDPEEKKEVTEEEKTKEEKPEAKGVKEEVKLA
Experiment: HDAC1 enzyme activity inhibition assay (in vitro, fluorimetric)
Settings: human recombinant HDAC1, fluorimetric kit, 30° C. 60 minutes
pIC50: −log10 of the molar value.
Recorded metric: pIC50

C[C@@H]1CN(Cc2ccc(C(=O)NO)cc2)C[C@H](C)N1C(=O)C(C)(C)C	5.25

a: C[C@@H]1CN(Cc2ccccc2-c2cccnc2)C[C@H](C)N1Cc1ccc(C(=O)NO)cc1
b: CC(C)=CCN1[C@H](C)CN(Cc2ccc(C(=O)NO)cc2)C[C@@H]1C
Pick the one with the larger pIC50: a vs b Indicate your choice by writing its label.
a
(a: 5.30, b: 4.91)
